- System: PC-3
- assay-explanation: panel of 60 human tumor cell lines, growth inhibition (Prostate Cancer)
- run-conditions: PC-3; Log10 Concentration −5.0
# Percent Growth per entry
measurement-kind: Percent Growth (%)

INSERT INTO measurements (structure, value_measured) VALUES
  ('C=C1C(=O)O[C@H]2[C@H]1CC/C(COC(=O)CCC(=O)NCc1ccc(Cl)nc1)=C\CC[C@@]1(C)O[C@@H]21', 78),
  ('C=C1C(=O)O[C@H]2[C@H]1CC/C(COC(=O)NCCO)=C\CC[C@@]1(C)O[C@@H]21', 94),
  ('C=C1C(=O)O[C@H]2[C@H]1CC/C(COC(=O)CCC(=O)N1CCC(C)CC1)=C\CC[C@@]1(C)O[C@@H]21', 66),
  ('C=C1C(=O)O[C@H]2[C@H]1CC/C(COC(=O)NC)=C\CC[C@@]1(C)O[C@@H]21', 67);
